# TGI annotations
System: K-562 leukemia
Test: NCI tumour cell line growth inhibition, 48 h
property.name: TGI

>>> measured_value("COC(=O)Nc1nc2ccc(C(=O)c3cccs3)cc2[nH]1")
"42.5 µM"
>>> measured_value("CCN(CC)C(=O)c1cc([N+](=O)[O-])c(=O)n2c1[nH]c1ccccc12")
"> 100 µM"
>>> measured_value("NC1=C(O)C(=O)C(c2c[nH]c3ccc(OCc4ccccc4)cc23)O1 (stereo not given)")
"> 100 µM"
>>> measured_value("COc1ccc(/C=C2\\OC(=O)C(Cl)=C2c2ccc(OC)c(Cl)c2)cc1")
"> 100 µM"
>>> measured_value("O=C1CC2OCC=C3CN4CCC5(C(=O)O)C(N1)C2C3CC45 (stereo not given)")
"> 100 µM"
>>> measured_value("COc1ccc(C2C3=C(COC3=O)N(CCO)c3cc4c(cc32)CCC4)cc1 (stereo not given)")
"> 50 µM"
>>> measured_value("CC(C)=C=CP(=O)(O)c1ccccc1")
"> 100 µM"
>>> measured_value("CCN(CC)CCNc1ccc([N+](=O)[O-])c2nc3ccc(OC)cc3c(N)c12")
"0.665 µM"
>>> measured_value("CC1C(c2ccccc2)NC(c2ccccc2)CC1(N)C#N (stereo not given)")
"> 100 µM"
>>> measured_value("Cc1nc(-n2nc(-c3ccccc3)cc2-c2ccccc2)sc1C(=O)/C=C/c1cccc([N+](=O)[O-])c1")
"28.3 µM"

----------
Tested on: NCI-H23 lung
Experiment: NCI tumour cell line growth inhibition, 48 h
# TGI annotations
property.name: TGI (µM)

>>> measured_value("CCCCOc1ccc(S(=O)(=O)/N=C(\\NO)Nc2ccc(Cl)cc2)cc1")
29.4
>>> measured_value("O=S(=O)(Nc1ccc(Cl)c(Cl)c1)c1ccc(-c2cnc(C3CC3)o2)cc1")
19.6
>>> measured_value("CCOC(=O)N(O)c1ccc(/C=C/c2ccccc2)cc1")
37.1
>>> measured_value("CN(C)CCOc1ccc2c(c1)C(=O)/C(=C\\c1ncc([N+](=O)[O-])n1C)C2")
1.3
>>> measured_value("CCSc1nc(N)c2cnn(CC)c2n1")
22
>>> measured_value("C=Cc1cc(OC)c2c(c1)c(=O)oc1c2cc(OC)c2c(O)ccc(C3OC(C(C)O)C(O)C3O)c21 (stereo not drawn)")
0.0151
>>> measured_value("Cc1ccc2c(=O)cc(-c3cccc(F)c3)[nH]c2n1")
0.739
>>> measured_value("CC1(C2CCC3(C)C(C2)C3Sc2ccccc2)OCCO1 (stereo not drawn)")
66.3
>>> measured_value("Clc1ncnc2c1nc(C#Cc1ccccc1)n2C1CCCCO1 (stereo not drawn)")
4.15
>>> measured_value("O=C(O)c1cccc(S(=O)(=O)NN2C(=O)CSC2c2c(O)ccc3ccccc23)c1 (stereo not drawn)")
51.1
>>> measured_value("N=C1C=C(N)C(=O)c2ccccc21")
0.61

----------
# TGI annotations
Tested on: SNB-75 CNS
Assay: NCI tumour cell line growth inhibition, 48 h
property.name: TGI (µM)

>>> measured_value("CCN1CCC(O)(/C=C/c2ccccc2)C(C(=O)/C=C/c2ccccc2)C1 (stereo not drawn)")
19.2
>>> measured_value("COc1ccc(S(=O)(=O)Nc2cc(Sc3cccc4cccnc34)c(O)c3ccccc23)cc1")
13.5
>>> measured_value("CCCCCCCCc1cc(O)ccc1O")
47.3
>>> measured_value("CNc1nc(-c2ccc3c(N)n[nH]c3c2)cc(N2C[C@@H](C(=O)NC3CCCCC3)CC[C@H]2C)n1")
7.23
